The origin of these recorded values is patent US20130266517A1.

Molecular target: alpha-synuclein (natural human wildtype alpha-synuclein) (human, UniProt P37840 1-140)
Assay: Biacore (SPR) full kinetic analysis
In this section, each of the binders is paired with its reported koff.
Output spec: scalar in s⁻¹, unitless text.

BINDER: Humanized 1H7 H4L1 (Hu1H7VHv4-Hu1H7VLv1) (antibody, V domains shown) VH: QVQLVQSGAEVKKPGASVKVSCKASGYSFTSYYIHWVRQAPGQGLEWIGWIYPGSGNTKYSEKFKGRATLTADTSTSTAYMELRSLRSDDTAVYFCARDGSYGFAYWGQGTLVTVSS VL: DIQLTQSPSSLSASVGDRVTITCKASQSVDYDGDSYMNWYQQKPGKAPKFLICAASNLESGVPSRFSGSGSGTDFTLTISSLQPEDAATYYCQQSNEDPFTFGQGTKLEIK
koff [s⁻¹]: 0.033

Continue with the next binder.
Ask: # get_value(readout='koff', item= Humanized 1H7 H3L1 (Hu1H7VHv3-Hu1H7VLv1) (antibody, V domains shown) VH: QVQLVQSGAEVKKPGASVKVSCKASGYTFTSYYIHWVRQAPGQGLEWMGWIYPGSGNTKYSEKFKGRATMTADTSTSTAYMELRSLRSDDTAVYYCARDGCYGFAYWGQGTLVTVSS VL: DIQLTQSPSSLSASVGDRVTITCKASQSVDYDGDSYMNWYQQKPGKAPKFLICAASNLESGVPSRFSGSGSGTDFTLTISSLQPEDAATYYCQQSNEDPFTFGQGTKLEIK )
Reply: 0.013
